- assay target: recombinant human NF-kappaB-inducing kinase (NIK/MAP3K14) (Homo sapiens (Human))
- measurement protocol: Inhibition of auto-phosphorylation of recombinant human NIK/MAP3K14 (AlphaScreen)
- condition details: NIK auto-phosphorylation, 5 μM ATP, 1 nM NIK, 2 h at 25° C.; average of values
- Method: Inhibition of auto-phosphorylation of recombinant human NF-kappaB-inducing kinase (NIK/MAP3K14) activity (AlphaScreen®) NIK/MAP3K14 auto-phosphorylation activity was measured using the AlphaScreen® (αscreen) format (Perkin Elmer). […] Protein A Acceptor and Glutathione-Donor beads were added before reading using an EnVision® Multilabel Plate Reader (Perkin Elmer). […] IC50's were determined by fitting a sigmoidal curve to % inhibition of control versus Log10 compound concentration.
pIC50: −log10 of the molar value.
measured endpoint: pIC50

                                smiles_data  qualifier_sign  value
0  Cc1[nH]ncc1-c1cnc(N)c2nc(-c3cccc(C#C[C@]4(O)CCN(C)C4=O)c3)ncc12               ≥   9.30
1  CN1CC[C@@](O)(C#Cc2cccc(-c3ccc4ncnc(C5CC5)c4n3)c2)C1=O               =   7.59
2  Cc1nc(N)c2nc(-c3cccc(C#C[C@](C)(O)c4ncc(C)s4)c3)ccc2n1               =   5.33
3  CN1CC[C@@](O)(C#Cc2cccc(-c3ncc4c(-c5ccccc5)cnc(N)c4n3)c2)C1=O               =   9.15

====

- assay target: recombinant human NF-kappaB-inducing kinase (NIK/MAP3K14) (Homo sapiens (Human))
- measurement protocol: Inhibition of auto-phosphorylation of recombinant human NIK/MAP3K14 (AlphaScreen)
- condition details: NIK auto-phosphorylation, 5 μM ATP, 1 nM NIK, 2 h at 25° C.; average of values
pIC50: −log10 of the molar value.
Entries annotated with measured pIC50
measured endpoint: pIC50

In [3]: df
Out[3]:
                                smiles_data  measured_endpoint  qualifier_sign  value
0  CN1CC[C@@](O)(C#Cc2cccc(-c3nc(N(C)C)c4ccnc(N)c4n3)c2)C1=O              pIC50               =   9.15
1  Cc1ccc(C#C[C@]2(O)CCN(C)C2=O)cc1-c1ccc2ncnc(N)c2n1              pIC50               =   9.15
2  CN1CC[C@@](O)(C#Cc2cccc(-c3cc(OCCC(F)(F)F)c4ncnc(N)c4n3)c2)C1=O              pIC50               =   8.72
3  [2H]C([2H])([2H])c1cc(-c2cccc(C#C[C@]3(O)CCN(C)C3=O)c2)nc2c(N)ncnc12              pIC50               =   9.05
4  Cc1ccc(C#C[C@]2(O)CCN(CC(F)(F)F)C2=O)cc1-c1ccc2ccnc(N)c2c1              pIC50               <   5.30

====

- assay target: recombinant human NF-kappaB-inducing kinase (NIK/MAP3K14) (Homo sapiens (Human), UniProt Q99558)
- Sequence (Q99558 whole entry): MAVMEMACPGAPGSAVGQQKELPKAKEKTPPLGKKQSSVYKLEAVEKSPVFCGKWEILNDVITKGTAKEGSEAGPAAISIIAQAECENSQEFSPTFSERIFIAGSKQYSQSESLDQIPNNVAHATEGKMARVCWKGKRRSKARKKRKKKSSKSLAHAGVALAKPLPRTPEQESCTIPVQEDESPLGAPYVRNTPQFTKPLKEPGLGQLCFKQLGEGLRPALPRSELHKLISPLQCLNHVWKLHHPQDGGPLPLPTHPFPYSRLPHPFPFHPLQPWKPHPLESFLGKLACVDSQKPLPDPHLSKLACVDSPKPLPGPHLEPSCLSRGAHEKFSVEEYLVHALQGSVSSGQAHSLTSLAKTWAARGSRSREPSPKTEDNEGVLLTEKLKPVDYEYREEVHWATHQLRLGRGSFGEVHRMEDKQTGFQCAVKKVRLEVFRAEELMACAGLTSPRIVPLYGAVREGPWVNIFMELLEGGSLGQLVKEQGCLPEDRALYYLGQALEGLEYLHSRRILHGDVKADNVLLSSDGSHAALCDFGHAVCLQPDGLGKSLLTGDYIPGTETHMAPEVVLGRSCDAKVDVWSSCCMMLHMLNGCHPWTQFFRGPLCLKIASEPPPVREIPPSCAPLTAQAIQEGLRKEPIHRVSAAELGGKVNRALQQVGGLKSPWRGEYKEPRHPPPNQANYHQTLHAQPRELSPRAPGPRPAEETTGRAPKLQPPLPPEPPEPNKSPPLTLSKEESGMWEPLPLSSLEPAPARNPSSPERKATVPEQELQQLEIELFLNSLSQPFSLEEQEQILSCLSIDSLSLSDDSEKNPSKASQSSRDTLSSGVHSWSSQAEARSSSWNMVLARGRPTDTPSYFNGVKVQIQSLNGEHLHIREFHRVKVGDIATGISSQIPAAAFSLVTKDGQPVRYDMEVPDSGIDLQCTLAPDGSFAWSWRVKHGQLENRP
- measurement protocol: Inhibition of auto-phosphorylation of recombinant human NIK/MAP3K14 (AlphaScreen)
- condition details: NIK auto-phosphorylation, 5 μM ATP, 1 nM NIK, 2 h at 25° C.; average of values
pIC50: −log10 of the molar value.
Entries annotated with measured pIC50
measured endpoint: pIC50

>>> df
                                smiles_data  measured_endpoint   value
0  Cc1nc(-c2cccc(C#C[C@]3(O)CCN(C)C3=O)c2)cc2c(N)ncnc12              pIC50    9.15
1  Cc1cnc(N)c2nc(-c3cccc(C#C[C@]4(O)CCN(C)C4=O)c3)ccc12              pIC50  ≥ 9.30
2  [2H]C([2H])([2H])N1CC[C@@](O)(C#Cc2ccc(C)c(-c3nc4c(N)ncnc4s3)c2)C1=O              pIC50  ≥ 9.30
3  Nc1nccc2cnc(-c3cccc(C#C[C@]4(O)CCn5ccnc54)c3)nc12              pIC50  ≥ 9.30
4  C[C@@](O)(C#Cc1cccc(-c2ccc3ncnc(N)c3n2)c1)c1nccs1              pIC50  ≥ 9.30

====

- assay target: recombinant human NF-kappaB-inducing kinase (NIK/MAP3K14) (Homo sapiens (Human), UniProt Q99558)
- measurement protocol: Inhibition of auto-phosphorylation of recombinant human NIK/MAP3K14 (AlphaScreen)
- condition details: NIK auto-phosphorylation, 5 μM ATP, 1 nM NIK, 2 h at 25° C.; average of values
measured endpoint: IC50

                                smiles_data     value
0  Cc1ccc(C#C[C@]2(O)CCc3cccnc32)cc1-c1ccc2ccnc(N)c2c1  28000 pM
1  CNc1cc(-c2cccc(C#C[C@]3(O)CCN(C)C3=O)c2)nc2c(N)ncnc12  ≤ 500 pM
2  CN1CC[C@@](O)(C#Cc2cccc(-c3ccc4c(C#N)cnc(N)c4n3)c2)C1=O  ≤ 500 pM
3  CN1CC[C@@](O)(C#Cc2cccc(-c3cc(F)c4ncnc(N)c4c3)c2)C1=O  ≤ 500 pM
4  CN1CC[C@@](O)(C#Cc2cccc(-c3ccc4c(Br)cnc(N)c4n3)c2)C1=O  ≤ 500 pM
